targetOrSystem: ATR/ATRIP kinase (Homo sapiens (Human))
Sequence (Q13535 whole entry): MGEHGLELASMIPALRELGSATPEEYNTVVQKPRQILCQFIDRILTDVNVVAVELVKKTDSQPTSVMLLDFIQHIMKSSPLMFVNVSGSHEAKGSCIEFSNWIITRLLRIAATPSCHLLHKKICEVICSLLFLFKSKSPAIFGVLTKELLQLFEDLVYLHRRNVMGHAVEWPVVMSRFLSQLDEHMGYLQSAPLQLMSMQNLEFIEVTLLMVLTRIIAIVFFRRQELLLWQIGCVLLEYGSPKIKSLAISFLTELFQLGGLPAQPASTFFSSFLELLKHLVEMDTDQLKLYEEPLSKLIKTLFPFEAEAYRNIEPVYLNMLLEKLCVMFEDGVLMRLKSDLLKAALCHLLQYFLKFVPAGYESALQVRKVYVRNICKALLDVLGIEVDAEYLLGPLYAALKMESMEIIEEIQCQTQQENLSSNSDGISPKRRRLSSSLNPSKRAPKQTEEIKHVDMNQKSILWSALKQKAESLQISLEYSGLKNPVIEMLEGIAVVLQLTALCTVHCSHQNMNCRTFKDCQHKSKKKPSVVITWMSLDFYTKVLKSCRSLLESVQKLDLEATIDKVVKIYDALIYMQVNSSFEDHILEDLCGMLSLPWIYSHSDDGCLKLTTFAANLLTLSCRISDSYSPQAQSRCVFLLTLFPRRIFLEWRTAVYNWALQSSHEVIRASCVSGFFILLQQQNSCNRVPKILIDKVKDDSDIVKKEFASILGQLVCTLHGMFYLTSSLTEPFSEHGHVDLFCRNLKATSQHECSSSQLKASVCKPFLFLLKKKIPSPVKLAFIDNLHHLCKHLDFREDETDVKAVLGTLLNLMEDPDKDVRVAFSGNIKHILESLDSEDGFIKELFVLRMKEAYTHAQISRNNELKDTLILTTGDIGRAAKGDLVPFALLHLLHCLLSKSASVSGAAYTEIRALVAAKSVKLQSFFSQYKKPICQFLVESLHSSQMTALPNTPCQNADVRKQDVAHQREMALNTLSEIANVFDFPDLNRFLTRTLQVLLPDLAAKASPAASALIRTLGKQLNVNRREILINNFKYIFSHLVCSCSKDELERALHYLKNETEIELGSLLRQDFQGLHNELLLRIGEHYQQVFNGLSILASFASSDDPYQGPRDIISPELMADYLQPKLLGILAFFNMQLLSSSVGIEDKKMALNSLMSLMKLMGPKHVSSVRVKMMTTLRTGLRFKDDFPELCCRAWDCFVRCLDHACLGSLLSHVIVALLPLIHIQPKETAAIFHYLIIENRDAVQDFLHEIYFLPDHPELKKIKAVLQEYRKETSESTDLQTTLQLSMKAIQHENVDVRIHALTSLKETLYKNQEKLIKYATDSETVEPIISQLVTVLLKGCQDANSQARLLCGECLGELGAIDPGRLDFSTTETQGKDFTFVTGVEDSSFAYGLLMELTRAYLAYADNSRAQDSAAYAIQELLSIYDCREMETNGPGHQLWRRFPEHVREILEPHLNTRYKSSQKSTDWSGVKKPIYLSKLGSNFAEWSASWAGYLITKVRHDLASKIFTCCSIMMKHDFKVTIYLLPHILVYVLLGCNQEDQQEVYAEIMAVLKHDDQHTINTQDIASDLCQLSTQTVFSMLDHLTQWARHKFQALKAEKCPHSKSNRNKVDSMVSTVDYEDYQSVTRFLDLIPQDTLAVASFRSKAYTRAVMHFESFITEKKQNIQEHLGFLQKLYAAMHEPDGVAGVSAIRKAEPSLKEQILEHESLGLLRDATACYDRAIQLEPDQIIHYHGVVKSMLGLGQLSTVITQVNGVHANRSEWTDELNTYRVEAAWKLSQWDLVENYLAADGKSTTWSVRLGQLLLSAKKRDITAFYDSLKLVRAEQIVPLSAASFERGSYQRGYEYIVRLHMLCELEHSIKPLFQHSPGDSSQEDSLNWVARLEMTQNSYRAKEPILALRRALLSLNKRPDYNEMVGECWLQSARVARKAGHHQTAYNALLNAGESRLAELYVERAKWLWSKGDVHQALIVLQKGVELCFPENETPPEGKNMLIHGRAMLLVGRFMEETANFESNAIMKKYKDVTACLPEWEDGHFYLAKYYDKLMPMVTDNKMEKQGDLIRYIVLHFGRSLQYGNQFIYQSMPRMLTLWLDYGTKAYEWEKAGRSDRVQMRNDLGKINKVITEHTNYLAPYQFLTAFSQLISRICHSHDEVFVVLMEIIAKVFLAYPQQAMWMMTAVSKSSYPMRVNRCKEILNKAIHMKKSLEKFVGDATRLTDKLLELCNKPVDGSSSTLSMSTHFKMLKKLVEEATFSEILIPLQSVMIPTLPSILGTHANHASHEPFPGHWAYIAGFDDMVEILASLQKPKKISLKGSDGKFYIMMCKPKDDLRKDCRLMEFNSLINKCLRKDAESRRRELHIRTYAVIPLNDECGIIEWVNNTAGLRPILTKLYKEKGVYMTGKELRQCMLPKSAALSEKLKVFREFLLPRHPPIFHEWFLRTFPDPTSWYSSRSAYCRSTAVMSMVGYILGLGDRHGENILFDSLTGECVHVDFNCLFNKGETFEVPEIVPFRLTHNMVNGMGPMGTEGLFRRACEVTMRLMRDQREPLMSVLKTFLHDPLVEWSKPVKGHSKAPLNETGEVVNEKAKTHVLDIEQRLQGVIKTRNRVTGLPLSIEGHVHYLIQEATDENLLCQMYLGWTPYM
Sequence (Q8WXE1 whole entry partner): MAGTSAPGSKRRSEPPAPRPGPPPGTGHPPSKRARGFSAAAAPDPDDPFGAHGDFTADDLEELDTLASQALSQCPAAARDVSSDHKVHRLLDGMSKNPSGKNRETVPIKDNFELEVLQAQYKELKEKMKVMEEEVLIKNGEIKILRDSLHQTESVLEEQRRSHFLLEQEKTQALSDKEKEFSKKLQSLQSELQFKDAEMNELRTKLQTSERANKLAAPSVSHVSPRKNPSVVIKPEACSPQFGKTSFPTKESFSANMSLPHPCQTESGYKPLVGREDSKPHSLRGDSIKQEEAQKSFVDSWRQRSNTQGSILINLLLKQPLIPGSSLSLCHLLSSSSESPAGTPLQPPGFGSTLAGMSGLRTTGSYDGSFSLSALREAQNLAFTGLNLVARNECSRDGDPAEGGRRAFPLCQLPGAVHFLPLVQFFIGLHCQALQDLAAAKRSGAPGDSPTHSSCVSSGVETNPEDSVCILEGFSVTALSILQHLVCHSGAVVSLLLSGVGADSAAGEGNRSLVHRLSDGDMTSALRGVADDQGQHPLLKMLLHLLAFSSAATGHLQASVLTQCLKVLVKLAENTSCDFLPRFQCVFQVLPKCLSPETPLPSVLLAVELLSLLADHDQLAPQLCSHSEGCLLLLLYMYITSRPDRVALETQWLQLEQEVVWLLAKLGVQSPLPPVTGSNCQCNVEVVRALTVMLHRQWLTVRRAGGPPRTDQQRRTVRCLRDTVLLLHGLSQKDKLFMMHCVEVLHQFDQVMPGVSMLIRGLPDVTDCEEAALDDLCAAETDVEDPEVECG
testSummary: ATR enzyme assay (HTRF, phosphorylation of substrate protein P53)
Format: biochemical
measurementSetup: substrate P53, TR-FRET
pIC50: −log10 of the molar value. Counter-ions that a name gives are not always drawn.
recordedEndpoint: pIC50

INSERT INTO measurements (molecule, targetorsystem, recordedendpoint, readoutnumber) VALUES
  ('C[C@@H]1COCCN1c1nc2c(cnn2-c2cc[nH]n2)c2c1CCN2S(=O)(=O)C(F)(F)F [Compound 6, trifluoroacetate]', 'ATR/ATRIP kinase (Homo sapiens (Human))', 'pIC50', 8.32),
  ('C[C@@H]1COCCN1c1nc2c(cnn2-c2cc[nH]n2)c2c1ccn2S(C)(=O)=O [Compound 1, trifluoroacetate]', 'ATR/ATRIP kinase (Homo sapiens (Human))', 'pIC50', 8.92),
  ('C[C@@H]1COCCN1c1nc2c(cnn2-c2cc[nH]n2)c2c1CCN2S(=O)(=O)N(C)C [Compound 4, trifluoroacetate]', 'ATR/ATRIP kinase (Homo sapiens (Human))', 'pIC50', 8.74),
  ('C[C@@H]1COCCN1c1nc2c(cnn2-c2cc[nH]n2)c2c1CCN2c1cccnc1 [Compound 13, trifluoroacetate]', 'ATR/ATRIP kinase (Homo sapiens (Human))', 'pIC50', 8.12),
  ('C[C@@H]1COCCN1c1nc2c(c(C#N)nn2-c2cc[nH]n2)c2c1CCN2S(C)(=O)=O [Compound 7]', 'ATR/ATRIP kinase (Homo sapiens (Human))', 'pIC50', 7.34),
  ('C[C@@H]1COCCN1c1nc2c(-c3cc[nH]n3)nccc2c2c1ccn2S(C)(=O)=O [Compound 8]', 'ATR/ATRIP kinase (Homo sapiens (Human))', 'pIC50', 7.40);

[1] C[C@@H]1COCCN1c1nc2c(cnn2-c2cc[nH]n2)c2c1ccn2S(=O)(=O)N(C)C [Compound 3, trifluoroacetate]
[2] C[C@@H]1COCCN1c1nc2c(cnn2-c2cc[nH]n2)c2c1CCN2C1CC1 [Compound 11]
Please state the entry with greater pIC50 among 1 and 2 . Let me know the label of the one you choose. 1

----------
targetOrSystem: hERG channel (Homo sapiens (Human), UniProt Q12809)
Sequence (Q12809 whole entry): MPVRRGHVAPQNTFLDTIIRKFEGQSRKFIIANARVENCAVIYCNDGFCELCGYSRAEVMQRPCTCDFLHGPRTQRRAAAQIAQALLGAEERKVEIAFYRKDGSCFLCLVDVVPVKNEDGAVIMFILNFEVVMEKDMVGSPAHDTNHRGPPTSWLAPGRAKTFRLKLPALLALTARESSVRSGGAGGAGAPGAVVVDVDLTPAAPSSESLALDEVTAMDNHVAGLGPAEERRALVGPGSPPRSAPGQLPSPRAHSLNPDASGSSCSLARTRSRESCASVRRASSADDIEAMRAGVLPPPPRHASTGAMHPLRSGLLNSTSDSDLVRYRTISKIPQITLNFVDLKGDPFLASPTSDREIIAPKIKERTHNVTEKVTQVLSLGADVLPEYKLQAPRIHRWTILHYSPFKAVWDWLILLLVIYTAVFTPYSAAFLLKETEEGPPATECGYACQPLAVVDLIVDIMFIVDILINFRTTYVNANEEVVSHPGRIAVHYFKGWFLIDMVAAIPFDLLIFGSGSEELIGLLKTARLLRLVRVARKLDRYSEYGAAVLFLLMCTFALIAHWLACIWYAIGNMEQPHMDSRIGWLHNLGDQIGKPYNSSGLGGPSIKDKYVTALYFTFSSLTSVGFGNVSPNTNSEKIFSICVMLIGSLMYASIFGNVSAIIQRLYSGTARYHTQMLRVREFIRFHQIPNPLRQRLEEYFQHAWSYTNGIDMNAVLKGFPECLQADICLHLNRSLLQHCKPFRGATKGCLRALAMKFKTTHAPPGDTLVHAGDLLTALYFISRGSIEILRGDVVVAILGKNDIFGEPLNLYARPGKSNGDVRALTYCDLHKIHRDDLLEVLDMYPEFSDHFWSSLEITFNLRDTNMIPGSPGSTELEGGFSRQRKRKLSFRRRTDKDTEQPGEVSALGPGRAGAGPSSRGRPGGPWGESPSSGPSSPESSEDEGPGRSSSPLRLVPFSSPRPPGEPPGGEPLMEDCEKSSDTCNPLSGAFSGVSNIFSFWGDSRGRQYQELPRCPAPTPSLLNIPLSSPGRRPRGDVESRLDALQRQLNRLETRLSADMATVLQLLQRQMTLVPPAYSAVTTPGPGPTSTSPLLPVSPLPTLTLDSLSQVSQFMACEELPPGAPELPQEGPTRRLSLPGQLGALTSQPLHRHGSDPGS
testSummary: Cardiac safety evaluation, hERG study (QPatch whole-cell recording)
measurementSetup: CHO cell line expressing hERG channel
Structures can show the parent of a compound that is named as a salt.
recordedEndpoint: IC50

Example compounds with recorded IC50:
INSERT INTO assay_data (compound, recordedendpoint, result) VALUES
  ('C[C@@H]1COCCN1c1nc2c(cnn2-c2cc[nH]n2)c2c1ccn2S(=O)(=O)N(C)C [Compound 3, trifluoroacetate]', 'IC50', '> 30 µM'),
  ('C[C@@H]1COCCN1c1nc2c(cnn2-c2cc[nH]n2)c2c1ccn2S(C)(=O)=O [Compound 1, trifluoroacetate]', 'IC50', '> 30 µM');

Shift focus to the following entry.
What measured IC50 goes with C[C@@H]1COCCN1c1nc2c(cnn2-c2cc[nH]n2)c2c1CCN2S(C)(=O)=O [Compound 2, trifluoroacetate] ? > 30 µM

----------
Tested on: LOVO human colon cancer cell line
testSummary: Cell proliferation assay (Cell titer glo)
Type: cell-based
measurementSetup: LOVO cells, 72 hours
Description: In the present disclosure, cell assays were used to evaluate the biological activity of compounds. […] Cell viability was evaluated using the Cell titer glo kit (CTG, Promega) under the instructions of the product specification. The data were analyzed using Graphpad software, and IC50 values and compound fitting curves were obtained (Table 2).
Counter-ions that a name gives are not always drawn.
recordedEndpoint: IC50 (nM)

INSERT INTO assay_data (compound, unitslabel, readoutnumber) VALUES
  ('C[C@@H]1COCCN1c1nc2c(cnn2-c2cc[nH]n2)c2c1CCN2C1CC1 [Compound 11]', 'nM', 72);

[I] C[C@@H]1COCCN1c1nc2c(cnn2-c2cc[nH]n2)c2c1CCN2S(N)(=O)=O [Compound 5]
[II] C[C@@H]1COCCN1c1nc2c(cnn2-c2cc[nH]n2)c2c1CCN2S(=O)(=O)C(F)(F)F [Compound 6, trifluoroacetate]
Please state the entry with greater IC50 among I and II . Let me know the label of the one you choose. I
(I: 262 nM, II: 79.6 nM)

[a] C[C@@H]1COCCN1c1nc2c(cnn2-c2cc[nH]n2)c2c1ccn2S(C)(=O)=O [Compound 1, trifluoroacetate]
[b] C[C@@H]1COCCN1c1nc2c(c(C#N)nn2-c2cc[nH]n2)c2c1CCN2S(C)(=O)=O [Compound 7]
[c] C[C@@H]1COCCN1c1nc2c(cnn2-c2cc[nH]n2)c2c1CCN2C [Compound 12]
Ascending by IC50, please. Respond with the label ranking, as requested. a, c, b
(a: 29.6 nM, c: 93.7 nM, b: 406 nM)

----------
targetOrSystem: CYP2C19 (Homo sapiens (Human), UniProt P33261)
pIC50: −log10 of the molar value. Where a name gives a salt, the structure may show the parent alone.
recordedEndpoint: pIC50

Example compounds with recorded pIC50:
INSERT INTO results (compound, recordedendpoint, result) VALUES
  ('C[C@@H]1COCCN1c1nc2c(cnn2-c2cc[nH]n2)c2c1CCN2S(C)(=O)=O [Compound 2, trifluoroacetate]', 'pIC50', '< 5.00'),
  ('C[C@@H]1COCCN1c1nc2c(cnn2-c2cc[nH]n2)c2c1ccn2S(=O)(=O)N(C)C [Compound 3, trifluoroacetate]', 'pIC50', '< 5.00');

What measured pIC50 goes with C[C@@H]1COCCN1c1nc2c(cnn2-c2cc[nH]n2)c2c1ccn2S(C)(=O)=O [Compound 1, trifluoroacetate] ? < 5.00

----------
targetOrSystem: CYP3A4 (Homo sapiens (Human))
Sequence (P08684 whole entry): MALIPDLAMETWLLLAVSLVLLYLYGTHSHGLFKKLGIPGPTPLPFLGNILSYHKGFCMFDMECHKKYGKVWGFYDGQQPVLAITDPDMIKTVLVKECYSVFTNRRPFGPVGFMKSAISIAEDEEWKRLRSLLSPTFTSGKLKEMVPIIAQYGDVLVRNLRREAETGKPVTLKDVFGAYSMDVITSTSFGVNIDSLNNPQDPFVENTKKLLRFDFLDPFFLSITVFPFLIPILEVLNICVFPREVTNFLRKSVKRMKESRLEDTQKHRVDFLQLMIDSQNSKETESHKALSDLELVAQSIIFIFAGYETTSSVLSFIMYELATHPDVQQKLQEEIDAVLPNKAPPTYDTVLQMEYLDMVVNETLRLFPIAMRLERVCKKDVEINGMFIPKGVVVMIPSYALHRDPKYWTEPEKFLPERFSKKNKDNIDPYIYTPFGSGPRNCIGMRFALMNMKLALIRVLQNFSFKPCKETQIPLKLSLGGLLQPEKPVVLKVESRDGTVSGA
testSummary: Cytochrome oxidase P450 inhibition study, CYP3A4
Format: in vitro ADME
measurementSetup: human liver microsomes, substrate Midazolam; read-out: IC50 3A4 (Midazolam)
Counter-ions that a name gives are not always drawn.
Recorded IC50 by entry

Example compounds with recorded IC50:
INSERT INTO assay_data (compound, targetorsystem, recordedendpoint, result) VALUES
  ('C[C@@H]1COCCN1c1nc2c(cnn2-c2cc[nH]n2)c2c1ccn2S(=O)(=O)N(C)C [Compound 3, trifluoroacetate]', 'CYP3A4 (Homo sapiens (Human))', 'IC50', '> 10 µM'),
  ('C[C@@H]1COCCN1c1nc2c(cnn2-c2cc[nH]n2)c2c1CCN2S(C)(=O)=O [Compound 2, trifluoroacetate]', 'CYP3A4 (Homo sapiens (Human))', 'IC50', '> 10 µM');

Shift focus to the following entry.
What measured IC50 goes with C[C@@H]1COCCN1c1nc2c(cnn2-c2cc[nH]n2)c2c1ccn2S(C)(=O)=O [Compound 1, trifluoroacetate] ? > 10 µM

----------
Recorded IC50 by entry
targetOrSystem: CYP3A4 (Homo sapiens (Human))
testSummary: Cytochrome oxidase P450 inhibition study, CYP3A4
Type: in vitro ADME
measurementSetup: human liver microsomes, substrate Testosterone; read-out: IC50 3A4 (Testosterone)
Where a name gives a salt, the structure may show the parent alone.

What measured IC50 goes with C[C@@H]1COCCN1c1nc2c(cnn2-c2cc[nH]n2)c2c1ccn2S(C)(=O)=O [Compound 1, trifluoroacetate] ? > 10 µM

What measured IC50 goes with C[C@@H]1COCCN1c1nc2c(cnn2-c2cc[nH]n2)c2c1ccn2S(=O)(=O)N(C)C [Compound 3, trifluoroacetate] ? > 10 µM

What measured IC50 goes with C[C@@H]1COCCN1c1nc2c(cnn2-c2cc[nH]n2)c2c1CCN2S(C)(=O)=O [Compound 2, trifluoroacetate] ? > 10 µM

----------
IC50 tested on UniProt:P10635: recorded values
Where a name gives a salt, the structure may show the parent alone.

INSERT INTO assay_data (molecule, recordedendpoint, result) VALUES
  ('C[C@@H]1COCCN1c1nc2c(cnn2-c2cc[nH]n2)c2c1CCN2S(C)(=O)=O [Compound 2, trifluoroacetate]', 'IC50', '> 10 µM'),
  ('C[C@@H]1COCCN1c1nc2c(cnn2-c2cc[nH]n2)c2c1ccn2S(=O)(=O)N(C)C [Compound 3, trifluoroacetate]', 'IC50', '> 10 µM');

Which IC50 is reported with UniProt:P10635 for this entry: C[C@@H]1COCCN1c1nc2c(cnn2-c2cc[nH]n2)c2c1ccn2S(C)(=O)=O [Compound 1, trifluoroacetate] ? > 10 µM
